test system: SKBR3 cells express WT PI3Ka; assay: In vitro cell proliferation, SKBR3 cells (CellTiter-Glo); type: cell-based; conditions: Homo sapiens, SK-BR-3, 72 h, inhibition of proliferation
measured.property: EC50

- C[C@@H](Nc1cccc(F)c1C(=O)O)c1cc(F)cc2c(=O)n(C)c(N3CC[C@@H](C(F)(F)F)C3)cc12: > 15 µM
- Cc1cc([C@@H](C)Nc2ccccc2C(=O)O)c2cc(-c3cnc(C)c(C)c3)n(C)c(=O)c2c1: > 15 µM
- COc1ccc(N2CCN(c3cc4c([C@@H](C)Nc5ccccc5C(=O)O)cc(C)cc4c(=O)n3C)CC2)cn1: 2 to 15 µM
- Cc1cc([C@@H](C)Nc2ccccc2C(=O)O)c2cc(N3CCN(c4nccs4)CC3)n(C)c(=O)c2c1: > 15 µM
- Cc1cc(C(C)Nc2ccccc2C(=O)O)c2cc(C#Cc3ccccc3)n(C)c(=O)c2c1 (single isomer, unassigned): > 15 µM
- C[C@@H](Nc1ccccc1C(=O)O)c1cc(F)cc2c(=O)n(C)c(-c3cnc(-c4ccnc(C(F)(F)F)n4)c(F)c3)cc12: > 15 µM
- Cc1cc([C@@H](C)Nc2ccccc2C(=O)O)c2cc(N3CCN(Cc4cccc(C)n4)CC3)n(C)c(=O)c2c1: 2 to 15 µM

* * *

tested on: phosphorylation of AKT (pAKT) in T47D cells expressing mutant PI3Ka (H1047R); assay: In vitro cell pAKT (Ser473) HTRF, T47D cells; assay type: cell-based; settings: Homo sapiens, T47D, 6 h, cellular pAKT, T47D cells, mutant PI3Ka (H1047R), 6 hours; read-out: Avg T-47D IC50
Reported IC50 values follow for various compounds
measured.property: IC50

- CCc1ncc(-c2cc3c([C@@H](C)Nc4ccccc4C(=O)O)cc(F)cc3c(=O)n2C)s1: 1 to 500 nM
- C[C@@H](Nc1ccccc1C(=O)O)c1cc(F)cc2c(=O)n(C)c(-c3cnc(C4CC4)s3)cc12: 1 to 500 nM
- COc1ncc(-c2cc3c([C@@H](C)Nc4ccccc4C(=O)O)cc(C)cc3c(=O)n2C)cc1F: 2000 to 15000 nM
- Cc1cc([C@@H](C)Nc2ccccc2C(=O)O)c2cc(N3CCN(c4nccnc4C)CC3)n(C)c(=O)c2c1: 1 to 500 nM
- Cc1cc([C@@H](C)Nc2ccc(F)cc2C(=O)O)c2c(F)c(N3CCN(CC(F)(F)F)CC3)n(C)c(=O)c2c1: 1 to 500 nM
- Cc1cc([C@@H](C)Nc2ccccc2C(=O)O)c2cc(N3CCn4nncc4C3)n(C)c(=O)c2c1: 2000 to 15000 nM
- Cc1cc([C@@H](C)Nc2ccc(Cl)nc2C(=O)O)c2cc(N3CCN(Cc4ccc(F)cc4)CC3)n(C)c(=O)c2c1: 1 to 500 nM
- Cc1cc([C@@H](C)Nc2ccccc2C(=O)O)c2cc(OCC3(C)CC3)n(C)c(=O)c2c1: 1 to 500 nM
- Cc1cc(C(C)Nc2ccccc2C(=O)O)c2cc(N3CCn4c(C)nnc4C3)n(C)c(=O)c2c1 (stereo not shown): > 15000 nM
- Cc1cc([C@@H](C)Nc2ccccc2C(=O)O)c2c(F)c(N3CCN(CC(F)(F)F)CC3)n(C)c(=O)c2c1: 1 to 500 nM
- Cc1cc([C@@H](C)Nc2ccccc2C(=O)O)c2cc(-c3cnc(C(F)(F)F)c(F)c3)n(C)c(=O)c2c1: 1 to 500 nM
- Cc1cc([C@@H](C)Nc2ccccc2C(=O)O)c2cc(N3CCN(C)C(C(F)(F)F)C3)n(C)c(=O)c2c1 (single isomer, unassigned): 1 to 500 nM
- Cc1cc([C@@H](C)Nc2ccccc2C(=O)O)c2cc(-c3cnc(C4CC4)cn3)n(C)c(=O)c2c1: 1 to 500 nM
- Cc1cc(C(C)Nc2ccccc2C(=O)O)c2cc(N3CCC4(CCN(CC(F)(F)F)C4)CC3)n(C)c(=O)c2c1 (stereo not shown): 1 to 500 nM
- Cc1cc([C@@H](C)Nc2ccccc2C(=O)O)c2cc(N3CCC(C)(O)CC3)n(C)c(=O)c2c1: 2000 to 15000 nM
- C[C@@H](Nc1ccccc1C(=O)O)c1cc(F)cc2c(=O)n(C)c(C3C[C@@H]3C(F)F)cc12 (single isomer, unassigned): 1 to 500 nM
- C[C@@H](Nc1cccc(F)c1C(=O)O)c1cc(F)cc2c(=O)n(C)c(N3CC[C@@H](C(F)(F)F)C3)cc12: 1 to 500 nM
- Cc1cc([C@@H](C)Nc2ccccc2C(=O)O)c2cc(N3CCN(c4cnn(C)n4)CC3)n(C)c(=O)c2c1: 1 to 500 nM
- Cc1cc([C@@H](C)Nc2cccc(F)c2C(=O)O)c2cc(-c3ccc(C(C)(C)F)nc3)n(C)c(=O)c2c1: 1 to 500 nM
- Cc1cc([C@@H](C)Nc2ccccc2C(=O)O)c2cc(OC3CC3)n(C)c(=O)c2c1: 1 to 500 nM
- Cc1cc([C@@H](C)Nc2ccccc2C(=O)O)c2cc(N3CCn4cc(C(F)(F)F)nc4C3)n(C)c(=O)c2c1: 1 to 500 nM
- COC(C)(C)c1ncc(-c2cc3c([C@@H](C)Nc4cccc(F)c4C(=O)O)cc(C)cc3c(=O)n2C)cc1F: 1 to 500 nM
- C[C@@H](Nc1ccccc1C(=O)O)c1cc(F)cc2c(=O)n(C)c(-c3cnc(CF)s3)cc12: 1 to 500 nM
- C[C@@H](Nc1ccccc1C(=O)O)c1cc(F)cc2c(=O)n(C)c(C34CC(c5ccc(F)cc5F)(C3)C4)cc12: 1 to 500 nM
- Cc1cc([C@@H](C)Nc2ccccc2C(=O)O)c2cc(-c3ccc(C)nc3C)n(C)c(=O)c2c1: 1 to 500 nM
- C[C@@H](Nc1ccccc1C(=O)O)c1cc(F)cc2c(=O)n(C)c(N3CC4CCC(C3)N4CC(F)(F)F)cc12: 1 to 500 nM
- Cc1cc([C@@H](C)Nc2ccccc2C(=O)O)c2cc(N3CCn4ncnc4C3)n(C)c(=O)c2c1: 500 to 2000 nM
- Cc1ncc(F)cc1-c1ncc(-c2cc3c([C@@H](C)Nc4ccccc4C(=O)O)cc(F)cc3c(=O)n2C)cc1F: 1 to 500 nM
